- run description: Solubility and pH value of the aqueous solution on addition of excess acid
- Type: physicochemical
- particulars: aqueous solution, excess acid 0.25 mol; read-out: Solubility

compound	display unit	Solubility
CN1CCCC(n2nc(Cc3ccc(Cl)cc3)c3ccccc3c2=O)CC1 (stereo not shown) [acetate, azelastine acetate]	mg/mL	100

---

- run description: Solubility and pH value of the aqueous solution on addition of excess acid
- Type: physicochemical
- particulars: aqueous solution, excess acid 0.1 mol; read-out: Solubility

molecule	Solubility
CN1CCCC(n2nc(Cc3ccc(Cl)cc3)c3ccccc3c2=O)CC1 (stereo not shown) [acetate, azelastine acetate]	30 mg/mL

---

- run description: Solubility and pH value of the aqueous solution on addition of excess acid
- Type: physicochemical
- particulars: aqueous solution, excess acid 0.5 mol; read-out: Solubility
test readout: Solubility (mg/mL)

molecule	test result
CN1CCCC(n2nc(Cc3ccc(Cl)cc3)c3ccccc3c2=O)CC1 (stereo not shown) [gluconate, azelastine gluconate]	100
